# protocol details: Oral bioavailability in rat at 8.5 mg/kg
# Assay type: ADME, organism-based
# condition info: in vivo
measurement name: bioavailability (%)
Supply the numeric figure in %, leaving out any unit text.

Query block: Looking for the measured bioavailability of Cc1nc(NNC(=O)[C@H](CC2CCCC2)CN(O)C=O)c(F)c(N2CCN3CCOC[C@@H]3C2)n1 [LANOPEPDEN] , can you help?
Result block: 91

====

# protocol details: AUC in rat at 8.5 mg/kg, po
# Format: ADME, organism-based
# condition info: in vivo
measurement name: AUC (ng·h/mL)
Supply the numeric figure in ng·h/mL, leaving out any unit text.

Query block: Looking for the measured AUC of Cc1nc(NNC(=O)[C@H](CC2CCCC2)CN(O)C=O)c(F)c(N2CCN3CCOC[C@@H]3C2)n1 [LANOPEPDEN] , can you help?
Result block: 1450
